B1: Zinc finger MYM-type protein 2, residues 463 to 506; numbered along this chain, Q9UBW7 (parent)
chain: IMNCCEQCGEYLPSKGAGNNVLVIDGQQKRFCCQSCVSEYKQVG

Variants of: B1
test_name: abundance fitness (aPCA) (normalised: wild type 0, dead -1); higher = more abundant; growth selection in yeast, the domain comes from the species named
run_parameters: Homo sapiens
// -1 strictly below -0.06 in abundance fitness; 1 otherwise

[[record]]
mutation_annotation = "Y40F"
group = -1

[[record]]
mutation_annotation = "G18D"
group = 1

[[record]]
mutation_annotation = "V23H"
group = -1

[[record]]
mutation_annotation = "G26M"
group = -1

[[record]]
mutation_annotation = "I24S"
group = -1

[[record]]
mutation_annotation = "G16L"
group = -1

[[record]]
mutation_annotation = "K29C"
group = -1

[[record]]
mutation_annotation = "R30E"
group = 1

[[record]]
mutation_annotation = "E10L"
group = -1

[[record]]
mutation_annotation = "K29M"
group = 1

[[record]]
mutation_annotation = "G18M"
group = -1

[[record]]
mutation_annotation = "R30Y"
group = -1

[[record]]
mutation_annotation = "C5M"
group = -1

[[record]]
mutation_annotation = "Q42K"
group = 1

[[record]]
mutation_annotation = "G16Q"
group = 1

[[record]]
mutation_annotation = "Q28K"
group = -1

[[record]]
mutation_annotation = "D25V"
group = -1

[[record]]
mutation_annotation = "K41S"
group = 1

[[record]]
mutation_annotation = "L22V"
group = 1

[[record]]
mutation_annotation = "L22G"
group = -1

[[record]]
mutation_annotation = "M2E"
group = 1

[[record]]
mutation_annotation = "N3Q"
group = -1

[[record]]
mutation_annotation = "Q34F"
group = 1

[[record]]
mutation_annotation = "I1F"
group = -1

[[record]]
mutation_annotation = "Y40S"
group = 1

[[record]]
mutation_annotation = "Y11Q"
group = 1

[[record]]
mutation_annotation = "K29V"
group = -1

[[record]]
mutation_annotation = "V37W"
group = -1

[[record]]
mutation_annotation = "G16E"
group = 1

[[record]]
mutation_annotation = "C5V"
group = -1

[[record]]
mutation_annotation = "K15L"
group = -1

[[record]]
mutation_annotation = "V23K"
group = 1

[[record]]
mutation_annotation = "N3C"
group = -1

[[record]]
mutation_annotation = "E10K"
group = -1

[[record]]
mutation_annotation = "N20W"
group = -1

[[record]]
mutation_annotation = "R30G"
group = 1

[[record]]
mutation_annotation = "F31Y"
group = -1

[[record]]
mutation_annotation = "L12K"
group = -1

[[record]]
mutation_annotation = "D25R"
group = -1

[[record]]
mutation_annotation = "V37S"
group = -1

[[record]]
mutation_annotation = "Y11K"
group = 1

[[record]]
mutation_annotation = "C5I"
group = -1

[[record]]
mutation_annotation = "Q34N"
group = 1

[[record]]
mutation_annotation = "Q34V"
group = 1

[[record]]
mutation_annotation = "Q7D"
group = -1


Source listed as the Human Domainome abundance scans (Beltran et al. 2025).
